B1: DFFB (parent)
chain: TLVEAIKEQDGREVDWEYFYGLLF

Variants of: B1
MEASUREMENT_NOTES: protein stability index of a GFP-peptide fusion (GPS, HEK-293T) (PSI 1-6); higher = more stable;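 also: lentivirally expressed fusions sorted by FACS into six bins by GFP to DsRed ratio, PSI derived from sequencing read proportions per bin multiplied by bin number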
ASSAY_CONTEXT: c terminus: a fixed tail appended
Please note: yes (1) applies when protein stability index is 2 or greater, and no (0) applies otherwise.

TLVEAIKEQDGREVIWEYFYGLLF [D15I] : yes (1)

Given TLVEAIKEQDGREVDWEYFYGLLE [F24E] , state whether its protein stability index is at least 2.
yes (1)

Given TIVEAIKEQDGREVDWEYFYGLLF [L2I] , state whether its protein stability index is at least 2.
yes (1)

Given TLVEAIKEQQGREVDWEYFYGLLF [D10Q] , state whether its protein stability index is at least 2.
no (0)

Given LLVEAIKEQDGREVDWEYFYGLLF [T1L] , state whether its protein stability index is at least 2.
no (0)
